assay: chemical genetic growth profiling, strain panel (AID 1159580);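 note: tested at 20 µM; growth read once vehicle control cultures reached saturation at 30 °C; 1 = growth at the plate median or of vehicle wells; lower values mean less growth of the strain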; settings: S. cerevisiae deletion strains, growth OD, locus YBR229C, strain ROT2, active compounds read low
Hit rate of the full screen: of about 5,500 compounds, about 2,000 (36%) were called active. Another 18% or so got no clear call; they are omitted. This is one part of the list.
# Yes = normalized growth below 1 (exclusive); No = normalized growth at/above 1

Task item: Please check: normalized growth for CCOP(=S)(OCC)SCCSCC , strictly under 1 or not?
Reply: Yes

Task item: Please check: normalized growth for CCOP(=S)(OCC)SCSP(=S)(OCC)OCC , strictly under 1 or not?
Reply: Yes

Task item: Please check: normalized growth for CC[C@@]1(C2O[C@@H](C3O[C@@](O)(CC)[C@H](C)C[C@@H]3C)C[C@@H]2C)CC[C@H]([C@]2(C)CCC3(C[C@H](O)[C@@H](C)[C@@H]([C@H](C)[C@@H](OC)[C@H](C)C(=O)O)O3)O2)O1 (stereo partly specified) , strictly under 1 or not?
Reply: No

Task item: Please check: normalized growth for CCOC(=O)CCc1cc(N=Cc2cc(Cl)cc(Cl)c2O)c(O)c(N=Cc2cc(Cl)cc(Cl)c2O)c1 , strictly under 1 or not?
Reply: Yes

Task item: Please check: normalized growth for CC(C)c1nc2ccccc2[nH]1 , strictly under 1 or not?
Reply: No

----------
I'd be grateful if you could share measured normalized growth for these entries.
assay: chemical genetic growth profiling, strain panel (AID 1159580);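 note: tested at 20 µM; growth read once vehicle control cultures reached saturation at 30 °C; 1 = growth at the plate median or of vehicle wells; lower values mean less growth of the strain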; conditions: S. cerevisiae deletion strains, growth OD, locus YJL166W, strain qcr8, active compounds read low
In all, about 5,500 compounds went through this assay and about 2,000 (36%) were called active. Another 18% or so got no clear call; they are omitted. The list shows a part of the results.
Lab note: jot the number down without any unit.

Task item: Value lookup for normalized growth; key = CC1=C(/C=C/C(C)=C/C=C/C(C)=C\C(=O)O)C(C)(C)CCC1
Reply: 0.928

Task item: Value lookup for normalized growth; key = C[C@@H]1CC2C3CCC4=CC(=O)C=C[C@]4(C)[C@@]3(F)[C@@H](O)C[C@]2(C)[C@@]1(O)C(=O)COP(=O)(O)O (stereo partly drawn)
Reply: 0.917

Task item: Value lookup for normalized growth; key = O=C(/C=C/c1ccc(O)c(O)c1)O[C@@H]1C[C@](O)(C(=O)O)C[C@@H](O)[C@H]1O
Reply: 0.974

Task item: Value lookup for normalized growth; key = Cc1cccc(CN2CCN(C(c3ccccc3)c3ccc(Cl)cc3)CC2)c1 (stereo not drawn)
Reply: 0.735

Task item: Value lookup for normalized growth; key = CCCCC(CC)CN=C(N)NC(N)=NCCCCCCN=C(N)NC(N)=NCC(CC)CCCC (stereo not drawn)
Reply: 0.0603

Task item: Value lookup for normalized growth; key = Nc1nc2ncc(CNc3ccc(C(=O)N[C@@H](CCC(=O)O)C(=O)O)cc3)nc2c(=O)[nH]1
Reply: 0.995

Task item: Value lookup for normalized growth; key = CCOC(=O)c1ccc(N)cc1
Reply: 1.01

Task item: Value lookup for normalized growth; key = O=C(O)CCC(=O)c1ccc(-c2ccccc2)cc1
Reply: 0.976

Task item: Value lookup for normalized growth; key = C[C@H](COc1ccccc1)N[C@H](C)[C@H](O)c1ccc(O)cc1
Reply: 0.989

Task item: Value lookup for normalized growth; key = CC[C@]12CCCN3CCc4c(n(c5ccccc45)C(=O)C1)[C@@H]32
Reply: 1.01

Task item: Value lookup for normalized growth; key = O=C(O)c1ccc2c(c1)OCO2
Reply: 1.02

Task item: Value lookup for normalized growth; key = CC[C@]12CCCN3CCc4c(n(c5ccccc45)[C@](O)(C(=O)OC)C1)[C@@H]32
Reply: 1.01

Task item: Value lookup for normalized growth; key = Nc1nc(N)c2nc(CNc3ccc(C(=O)NC(CCC(=O)O)C(=O)O)cc3)cnc2n1 (stereo not drawn)
Reply: 1.02

Task item: Value lookup for normalized growth; key = CN(Cc1cc(Br)cc(Br)c1N)C1CCCCC1
Reply: 1

Task item: Value lookup for normalized growth; key = NCc1ccc(S(N)(=O)=O)cc1
Reply: 1.04

Task item: Value lookup for normalized growth; key = COc1ccc2c(c1O)-c1c(OC)c(OC)cc3c1[C@H](C2)N(C)CC3
Reply: 0.987

Task item: Value lookup for normalized growth; key = NC(=O)c1cc[n+](CC2=C(C(=O)O)N3C(=O)C(NC(=O)C(c4ccccc4)S(=O)(=O)[O-])C3SC2)cc1 (stereo not drawn)
Reply: 1

Task item: Value lookup for normalized growth; key = COc1ccc(/C=C/C(=O)O)cc1OC
Reply: 0.999

Task item: Value lookup for normalized growth; key = CN(C)CCCO[C@H]1[C@@H](C(O)CO)OC2OC(C)(C)O[C@@H]21 (stereo partly drawn)
Reply: 0.969

Task item: Value lookup for normalized growth; key = Nc1nc2c(c(=O)[nH]1)N(C=O)C(CNc1ccc(C(=O)N[C@@H](CCC(=O)O)C(=O)O)cc1)CN2 (stereo partly drawn)
Reply: 0.932

Task item: Value lookup for normalized growth; key = COc1ccccc1OCC(O)CN1CCN(CC(=O)Nc2c(C)cccc2C)CC1 (stereo not drawn)
Reply: 0.997

Task item: Value lookup for normalized growth; key = N[C@@H](CCC(=O)N[C@@H](CCSC(CC(=O)O)C(=O)O)C(=O)NCC(=O)O)C(=O)O (stereo partly drawn)
Reply: 0.994

Task item: Value lookup for normalized growth; key = NCCCCN=C(N)N
Reply: 1.02

Task item: Value lookup for normalized growth; key = CCCN(CCC)C(=O)C(CCC(=O)O)NC(=O)c1ccccc1 (stereo not drawn)
Reply: 0.983

Task item: Value lookup for normalized growth; key = CCCN(CCC)CCc1cccc2c1CC(=O)N2
Reply: 0.988

Task item: Value lookup for normalized growth; key = NC(=O)c1cnccn1
Reply: 0.969

Task item: Value lookup for normalized growth; key = COc1cc(/C=C/C(=O)O)cc(OC)c1OC
Reply: 0.994

Task item: Value lookup for normalized growth; key = c1ccc(-c2ccc(C(c3ccccc3)n3ccnc3)cc2)cc1 (stereo not drawn)
Reply: 0.0657

Task item: Value lookup for normalized growth; key = CCCNC(C)C(=O)Nc1ccccc1C (stereo not drawn)
Reply: 0.999

Task item: Value lookup for normalized growth; key = C[C@](N)(Cc1ccc(O)cc1)C(=O)O
Reply: 1

Task item: Value lookup for normalized growth; key = CC[C@@H]1[C@@H](O)N2C3C[C@H]1C1C(O)[C@]4(C[C@@H]12)c1ccccc1N(C)[C@@H]34 (stereo partly drawn)
Reply: 1.04

Task item: Value lookup for normalized growth; key = COc1ccc(/C=C/c2cc(O)cc(O)c2)cc1
Reply: 1

Task item: Value lookup for normalized growth; key = CC1(C)O[C@@H]2[C@@H](CO[C@@]3(COS(N)(=O)=O)OC(C)(C)O[C@@H]23)O1
Reply: 0.985

Task item: Value lookup for normalized growth; key = Oc1ccc(/C=C/c2cc(O)cc(O)c2)cc1
Reply: 0.998

Task item: Value lookup for normalized growth; key = CC1=C(/C=C/C(C)=C/C=C/C(C)=C/C(=O)O)C(C)(C)CCC1
Reply: 0.987

Task item: Value lookup for normalized growth; key = O=C(O)P(=O)(O)O
Reply: 0.978

Task item: Value lookup for normalized growth; key = COc1cc(C)c2c(c1C=O)Oc1c(c(C)c(O)c3c1C(O)OC3=O)OC2=O (stereo not drawn)
Reply: 1.03

Task item: Value lookup for normalized growth; key = C#C[C@]1(O)CCC2C3CCc4cc(O)ccc4C3CC[C@@]21C (stereo partly drawn)
Reply: 0.973

Task item: Value lookup for normalized growth; key = O=C(O)c1cc(=O)c2c(OCC(O)COc3cccc4oc(C(=O)O)cc(=O)c34)cccc2o1
Reply: 0.953

Task item: Value lookup for normalized growth; key = COc1ccc(C=CC(=O)c2ccc(O)cc2O)cc1OC
Reply: 0.83

Task item: Value lookup for normalized growth; key = CC1(C)C2CC(=O)O[C@@]3(C)C4=CC(=O)O[C@@H](c5ccoc5)[C@]4(C)CCC3[C@@]2(C)C=C[C@H]1O (stereo partly drawn)
Reply: 0.98

Task item: Value lookup for normalized growth; key = CC12CCC(CC1)C(C)(C)O2
Reply: 0.996

Task item: Value lookup for normalized growth; key = COC(=O)[C@H]1[C@H]2C[C@@H]3c4[nH]c5cc(OC)ccc5c4CCN3C[C@H]2C[C@@H](OC(=O)c2cc(OC)c(OC)c(OC)c2)[C@@H]1OC
Reply: 0.981

The reported numbers originate from PubChem BioAssay AID1159580.
